Target: human GLP-2R (Homo sapiens, UniProt O95838)
Construct: host or cells: COS-7
Sequence (O95838 1-553): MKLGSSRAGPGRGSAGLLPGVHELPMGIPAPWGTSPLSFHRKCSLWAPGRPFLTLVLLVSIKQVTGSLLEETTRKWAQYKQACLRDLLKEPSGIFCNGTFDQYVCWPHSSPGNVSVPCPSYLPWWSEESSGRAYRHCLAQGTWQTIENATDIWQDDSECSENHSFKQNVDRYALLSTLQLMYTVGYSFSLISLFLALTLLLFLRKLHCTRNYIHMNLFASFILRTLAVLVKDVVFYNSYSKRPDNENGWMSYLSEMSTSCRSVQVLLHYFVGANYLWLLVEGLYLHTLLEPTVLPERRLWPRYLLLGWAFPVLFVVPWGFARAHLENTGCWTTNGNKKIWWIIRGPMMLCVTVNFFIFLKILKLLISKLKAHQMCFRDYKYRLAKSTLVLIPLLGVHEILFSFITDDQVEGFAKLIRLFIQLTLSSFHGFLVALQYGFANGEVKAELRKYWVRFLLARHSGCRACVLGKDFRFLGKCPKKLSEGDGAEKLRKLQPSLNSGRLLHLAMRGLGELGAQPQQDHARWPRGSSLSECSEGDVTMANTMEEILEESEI
Assay: cAMP assay (HitHunter) in transiently transfected COS-7 cells expressing human GLP-2R
Type: cell-based
Conditions: cAMP, COS-7 cells, human GLP-2R; read-out: EC50 (nM) GLP-2R
*1 amine or outer side, *2 acyl side, *3 side chain or, on linkers, in order; H or OH if unused. Where no end group is shown, it is not given here. Side-chain parts run from the residue outwards. [ ]: non-standard residue; d: D form. The star is where a group is joined. C18 diacid = O=C(O)CCCCCCCCCCCCCCCCC(=O)*; γGlu = O=C(O)[C@H](CCC(=O)[*:2])N[*:1]; AEEA = NCCOCCOCC(=O)O; Aib = CC(C)(N)C(=O)O
QUANTITY NAME: EC50 (nM)

                                  substance  quantity_name  experimental_result
0  HADGTFTSDYSTILDK([AEEA-AEEA-γGlu-C18 diacid])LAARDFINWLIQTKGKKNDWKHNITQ-OH [Compound 21]           EC50                  0.6
1  HADGTFTSDYST[Aib]LDK([AEEA-AEEA-γGlu-C18 diacid])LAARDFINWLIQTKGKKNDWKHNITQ-OH [Compound 22]           EC50                  0.6
2  HADGTFTSDYST[Aib]LDKLAARDFINWLIQTKGKKNDWKHNITQK([AEEA-AEEA-γGlu-C18 diacid])-OH [Compound 27]           EC50                  3.2
